System: HepG2 cells
Assay: Cytotoxicity screening panel, High Content Screening
Assay type: cell-based
Details: Nuclear Size, response direction ↑
experimental endpoint: AC50

[[record]]
molecule = "COc1ccc(OCCN2CCN(C(=O)c3cc4ccccc4[nH]3)CC2)cc1 [Compound 1]"
assay_result = "> 50 µM"


###

Assay: Cytotoxicity screening panel, High Content Screening
Assay type: cell-based
Settings: human, HepG2 cells; Mitochondrial Membrane Potential, response direction ↓
experimental endpoint: AC50

[[record]]
compound = "COc1ccc(OCCN2CCN(C(=O)c3cc4ccccc4[nH]3)CC2)cc1 [Compound 1]"
assay_result = "> 50 µM"


###

Molecular target: D2 DAR (Homo sapiens (Human), UniProt P14416)
Sequence (P14416 whole entry): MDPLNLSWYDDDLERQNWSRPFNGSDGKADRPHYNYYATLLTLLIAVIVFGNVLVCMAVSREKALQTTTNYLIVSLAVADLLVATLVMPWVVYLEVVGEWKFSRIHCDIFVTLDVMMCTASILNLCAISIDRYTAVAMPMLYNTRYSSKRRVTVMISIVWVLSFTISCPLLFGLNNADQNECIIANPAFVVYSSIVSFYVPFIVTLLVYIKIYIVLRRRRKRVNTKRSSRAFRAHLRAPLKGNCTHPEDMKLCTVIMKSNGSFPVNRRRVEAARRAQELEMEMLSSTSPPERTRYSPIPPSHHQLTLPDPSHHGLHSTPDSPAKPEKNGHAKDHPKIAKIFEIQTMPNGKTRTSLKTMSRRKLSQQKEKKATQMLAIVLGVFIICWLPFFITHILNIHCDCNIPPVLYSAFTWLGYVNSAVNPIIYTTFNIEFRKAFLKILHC
Type: cell-based
Details: β-arrestin recruitment, antagonist
experimental endpoint: D2 IC50

[[record]]
compound = "O=C(c1cc2cc(Cl)ccc2[nH]1)N1CCN(CCOc2cccnc2)CC1 [Compound 19]"
assay_result = "None"

[[record]]
compound = "O=C(c1cc2cccc(Cl)c2[nH]1)N1CCN(CCOc2cccnc2)CC1 [Compound 21]"
assay_result = "None"

[[record]]
compound = "COc1ccc(OCCN2CCN(C(=O)c3cc4cc(Cl)ccc4[nH]3)CC2)cc1 [Compound 53]"
assay_result = "none"

[[record]]
compound = "O=C(c1n[nH]c2ccccc12)N1CCN(CCOc2cccnc2)CC1 [Compound 7]"
assay_result = "None"

[[record]]
compound = "COc1cccc(OCCN2CCN(C(=O)c3cc4cccnc4[nH]3)CC2)c1 [Compound 11]"
assay_result = "None"

[[record]]
compound = "Cc1cccc2[nH]c(C(=O)N3CCN(CCOc4cccnc4)CC3)cc12 [Compound 76]"
assay_result = "none"

[[record]]
compound = "O=C(c1cc2ccc(Cl)cc2[nH]1)N1CCN(CCOc2cccnc2)CC1 [Compound 17]"
assay_result = "None"

[[record]]
compound = "COc1ccc(OCCN2CCN(C(=O)c3cc4ncccc4[nH]3)CC2)cc1 [Compound 59]"
assay_result = "none"

[[record]]
compound = "O=C(c1cc2ccccc2o1)N1CCN(CCOc2cccnc2)CC1 [Compound 88]"
assay_result = "none"


###

Target: D2 DAR (Homo sapiens (Human))
Conditions: β-arrestin recruitment, antagonist
experimental endpoint: IC50

[[record]]
compound = "O=C(c1cc2ccccc2[nH]1)N1CCN(CCOc2ccc(F)cc2)CC1 [Compound 15]"
assay_result = "9.7 µM"

[[record]]
compound = "COc1ccc(OCCN2CCN(C(=O)c3cc4ccccc4[nH]3)CC2)cc1OC [Compound 104]"
assay_result = "> 50 µM"

[[record]]
compound = "COc1ccc(OCCN2CCN(C(=O)c3ccc(OC)cc3)CC2)cc1 [Compound 33]"
assay_result = "14 µM"

[[record]]
compound = "COc1ccc(OCCN2CCN(C(=O)c3cc4ccccc4[nH]3)CC2)c(Cl)c1 [Compound 105]"
assay_result = "> 50 µM"

[[record]]
compound = "CC(C)(C)c1ccc(OCCN2CCN(C(=O)c3cc4ccccc4[nH]3)CC2)cc1 [Compound 99]"
assay_result = "> 100 µM"

[[record]]
compound = "CCc1ccc(OCCN2CCN(C(=O)c3ccc(Cl)cc3)CC2)cc1 [Compound 36]"
assay_result = "> 10 µM"

[[record]]
compound = "CCc1ccc(OCCN2CCN(C(=O)c3ccc(OC)cc3)CC2)cc1 [Compound 35]"
assay_result = "> 50 µM"

[[record]]
compound = "COc1ccc(C(=O)N2CCN(c3ccc(OC)cc3)CC2)cc1 [Compound 114]"
assay_result = "> 100 µM"

[[record]]
compound = "COc1ccc(OCCN2CCN(C(=O)c3cc4cnccc4[nH]3)CC2)cc1 [Compound 58]"
assay_result = "> 100 µM"

[[record]]
compound = "COc1ccc(OCCN2CCN(C(=O)c3cc4cccc(OC)c4[nH]3)CC2)cc1 [Compound 45]"
assay_result = "> 100 µM"

[[record]]
compound = "COc1ccc(OCCN2CCN(C(=O)c3cc4cccc(C)c4[nH]3)CC2)cc1 [Compound 48]"
assay_result = "> 100 µM"

[[record]]
compound = "COc1ccc(OCCN2CCN(C(=O)c3ccccc3OC)CC2)cc1 [Compound 42]"
assay_result = "> 100 µM"

[[record]]
compound = "O=C(c1cc2ccccc2[nH]1)N1CCN(CCOc2ccc(Br)cc2)CC1 [Compound 102]"
assay_result = "> 100 µM"

[[record]]
compound = "COc1ccc(OCCN2CCN(C(=O)c3ccc(OC)cc3)CC2)cc1 [Compound 65]"
assay_result = "> 50 µM"

[[record]]
compound = "COc1ccc(N(C)CCN2CCN(C(=O)c3cc4ccccc4[nH]3)CC2)cc1 [Compound 119]"
assay_result = "> 100 µM"

[[record]]
compound = "COc1ccc(OCCN2CCN(C(=O)c3cc4ccncc4[nH]3)CC2)cc1 [Compound 57]"
assay_result = "> 100 µM"


###

Test system: HepG2 cells
Experiment: Cytotoxicity screening panel, High Content Screening
Type: cell-based
Conditions: Cell Membrane Permeability, response direction ↑
experimental endpoint: AC50

[[record]]
molecule = "COc1ccc(OCCN2CCN(C(=O)c3cc4ccccc4[nH]3)CC2)cc1 [Compound 1]"
experimental_system = "HepG2 cells"
assay_result = "> 50 µM"


###

Quick reference: pEC50 of the listed items.
Molecular target: D3 DAR (Homo sapiens (Human), UniProt P35462)
Sequence (P35462 whole entry): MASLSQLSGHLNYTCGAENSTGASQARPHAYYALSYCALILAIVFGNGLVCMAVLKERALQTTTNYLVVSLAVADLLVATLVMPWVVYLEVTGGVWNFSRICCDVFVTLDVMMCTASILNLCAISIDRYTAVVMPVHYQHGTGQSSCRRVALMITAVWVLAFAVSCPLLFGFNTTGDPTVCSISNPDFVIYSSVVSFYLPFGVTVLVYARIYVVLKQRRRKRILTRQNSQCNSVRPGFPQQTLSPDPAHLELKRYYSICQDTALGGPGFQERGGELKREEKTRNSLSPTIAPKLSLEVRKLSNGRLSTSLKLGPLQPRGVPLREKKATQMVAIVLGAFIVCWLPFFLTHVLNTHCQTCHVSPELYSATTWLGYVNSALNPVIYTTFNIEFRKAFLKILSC
Conditions: β-arrestin recruitment, agonist
pEC50: −log10 of the molar value.
experimental endpoint: pEC50

[[record]]
molecule = "CC(CN1CCN(C(=O)c2cc3ccccc3[nH]2)CC1)Oc1ccc(Cl)cc1 (stereo not drawn)"
limit_qualifier = "="
assay_result = 7.49

[[record]]
molecule = "COc1ccc2cc(C(=O)N3CCN(CCOc4cccnc4)CC3)[nH]c2c1 [Compound 71]"
limit_qualifier = "="
assay_result = 8.19

[[record]]
molecule = "COc1ccc(N(C)CCN2CCN(C(=O)c3cc4ccccc4[nH]3)CC2)cc1"
limit_qualifier = "="
assay_result = 5.72

[[record]]
molecule = "COc1ccc2cc(C(=O)N3CCN(CCOc4cccnc4)CC3)[nH]c2c1 [Compound 23]"
limit_qualifier = "="
assay_result = 8.19

[[record]]
molecule = "O=C(c1cc2ccccc2[nH]1)N1CCN(CCOc2ccccc2)CC1"
limit_qualifier = "="
assay_result = 8.04

[[record]]
molecule = "COc1ccc(OCCN2CCN(C(=O)c3cc4cc(C)ccc4[nH]3)CC2)cc1"
limit_qualifier = "="
assay_result = 6.21

[[record]]
molecule = "O=C(c1cc2ccccc2o1)N1CCN(CCOc2cccnc2)CC1 [Compound 88]"
limit_qualifier = "="
assay_result = 7.38

[[record]]
molecule = "Cc1cccc2cc(C(=O)N3CCN(CCOc4cccnc4)CC3)[nH]c12 [Compound 26]"
limit_qualifier = "="
assay_result = 7.59

[[record]]
molecule = "COc1cccc(OCCN2CCN(C(=O)c3cc4ccccc4[nH]3)CC2)c1 [Compound 14]"
limit_qualifier = "="
assay_result = 7.47

[[record]]
molecule = "O=C(c1cc2ccccc2[nH]1)N1CCN(CCOc2ccc3[nH]ccc3c2)CC1"
limit_qualifier = "="
assay_result = 7.22

[[record]]
molecule = "COc1cccc(OCCN2CCN(C(=O)c3cc4ccccc4[nH]3)CC2)c1 [Compound 94]"
limit_qualifier = "="
assay_result = 7.47

[[record]]
molecule = "Cc1ccc(OCCN2CCN(C(=O)c3cc4ccccc4[nH]3)CC2)cc1"
limit_qualifier = "="
assay_result = 6.82

[[record]]
molecule = "O=C(c1cc2ccccc2[nH]1)N1CCN(CCOc2ccc(F)cc2)CC1 [Compound 100]"
limit_qualifier = "="
assay_result = 6.90

[[record]]
molecule = "COc1ccc(OCCN2CCN(C(=O)c3nc4ccccc4[nH]3)CC2)cc1"
limit_qualifier = "="
assay_result = 6.72

[[record]]
molecule = "COc1ccc(OCCN2CCN(C(=O)c3cc4c(C)cccc4[nH]3)CC2)cc1"
limit_qualifier = "="
assay_result = 6.58

[[record]]
molecule = "O=C(c1cc2ccccc2[nH]1)N1CCN(CCOc2cncc(Cl)c2)CC1 [Compound 108]"
limit_qualifier = "="
assay_result = 8.30

[[record]]
molecule = "COc1cccc(OCCN2CCN(C(=O)c3cc4cc(OC)ccc4[nH]3)CC2)c1 [Compound 29]"
limit_qualifier = "="
assay_result = 6.55

[[record]]
molecule = "O=C(c1cc2ccccc2[nH]1)N1CCN(CCOc2cncc(Cl)c2)CC1 [Compound 13]"
limit_qualifier = "="
assay_result = 8.30

[[record]]
molecule = "COc1ccc(C(=O)N2CCN(CCOc3ccc4c(c3)OCO4)CC2)cc1"
limit_qualifier = "="
assay_result = 6.51

[[record]]
molecule = "O=C(c1cc2ccccc2[nH]1)N1CCN(CCOc2ccc(OC(F)(F)F)cc2)CC1"
limit_qualifier = "="
assay_result = 5.42

[[record]]
molecule = "O=C(c1cc2cccnc2[nH]1)N1CCN(CCOc2cccnc2)CC1 [Compound 4]"
limit_qualifier = "="
assay_result = 7.87

[[record]]
molecule = "CCc1ccc(OCCN2CCN(C(=O)c3ccc(OC)cc3)CC2)cc1"
limit_qualifier = "="
assay_result = 5.59

[[record]]
molecule = "COc1cccc(OCCN2CCN(C(=O)c3nc4ccccc4[nH]3)CC2)c1"
limit_qualifier = "="
assay_result = 6.55

[[record]]
molecule = "COc1ccc(OCCN2CCN(C(=O)c3ccccc3)CC2)cc1"
limit_qualifier = "="
assay_result = 6.26

[[record]]
molecule = "Cc1ccc2[nH]c(C(=O)N3CCN(CCOc4cccnc4)CC3)cc2c1 [Compound 75]"
limit_qualifier = "="
assay_result = 7.89

[[record]]
molecule = "COc1ccc(OCCN2CCN(C(=O)C3CCCCC3)CC2)cc1"
limit_qualifier = "<"
assay_result = 4.30

[[record]]
molecule = "CCC(=O)N1CCN(CCOc2ccc(OC)cc2)CC1"
limit_qualifier = "="
assay_result = 7.46

[[record]]
molecule = "COc1ccc(OCCN2CCN(C(=O)c3cc4ccccc4n3C)CC2)cc1"
limit_qualifier = "="
assay_result = 6.21

[[record]]
molecule = "O=C(c1cc2ccccc2[nH]1)N1CCN(CCOc2ccncc2)CC1"
limit_qualifier = "="
assay_result = 6.33

[[record]]
molecule = "COc1ccc(OCCN2CCN(C(=O)c3cc4cccnc4[nH]3)CC2)cc1"
limit_qualifier = "="
assay_result = 6.78

[[record]]
molecule = "COc1ccc(OCCN2CCN(C(=O)c3cc4ccncc4[nH]3)CC2)cc1"
limit_qualifier = "="
assay_result = 6.09

[[record]]
molecule = "COc1ccc(C(=O)N2CCN(CCOc3cccnc3)CC2)c(C)c1"
limit_qualifier = "="
assay_result = 6.94

[[record]]
molecule = "COc1ccc(OCCN2CCN(C(=O)c3cc4ccccc4[nH]3)CC2)cc1"
limit_qualifier = "="
assay_result = 7.44

[[record]]
molecule = "Cn1c(C(=O)N2CCN(CCOc3cccnc3)CC2)cc2ccccc21 [Compound 81]"
limit_qualifier = "="
assay_result = 7.42

[[record]]
molecule = "COc1ccc(OCCN2CCN(C(=O)c3cc4cnccc4[nH]3)CC2)cc1"
limit_qualifier = "="
assay_result = 6.24

[[record]]
molecule = "COc1ccc(C(=O)N2CCN(CCOc3ccccc3OC)CC2)cc1"
limit_qualifier = "="
assay_result = 6.56

